- Test system: Plasmodium falciparum
- ASSAY PROTOCOL: Screen against P. falciparum Asexual Blood Stage (ABS), at 5uM
- Format: functional, Dd2
- CONDITION DETAILS: tested at 5 uM
About 2,100 (3.2%) of roughly 65,000 compounds showed an effect of 50% or more. The median lay at about -52%. Many of the other results were omitted from the sample, so strong results are more common in it than they were.
Everything with INHIBITION lower than -20% is F; everything else, including exactly -20%, is T.

Use the examples below as a reference point.
O=C(c1ccccn1)N1CCC2(COc3ncccc3S(=O)(=O)N2)C1 (stereo not given) :: F
COc1c(CNCc2cccnc2N2CCN(C)CC2)c(C)nn1C :: F
O=C(C1CCOCC1)N1C[C@H]2CCC[C@@]2(COCc2ccccn2)C1 :: T
CN(C)c1nc2c(c(N(C)Cc3n[nH]c4c3CCCCC4)n1)CCNC2 :: T

Now for a further molecule.
Is the recorded value of INHIBITION equal to or greater than -20% for this molecule? O=C1CCC2(CCC(NCc3ccsc3)CC2)N1Cc1ccccc1 (stereo not given) T
